Here, each record is paired with measured Ratio data.
Tested on: HeLa
Assay: Ratio of IC50 to INCC50 for human HeLa cells
Format: functional

# MOLECULE, Ratio
rows = [
    ("O=C1C=C(O)c2c(O)cccc2C1=O", 1.71),
    ("CO[C@H]1O[C@H](COC2=CC(=O)c3c(O)cccc3C2=O)[C@@H](O)[C@H](O)[C@H]1O", 3.11),
    ("O=C1C=C(O)C(=O)c2c(O)ccc(O)c21", 4.71),
    ("COC1=CC(=O)c2c(O)ccc(O)c2C1=O", 2.97),
    ("O=C1C=CC(=O)c2c(O)cccc21 [JUGLONE]", 1.67),
    ("COC1=CC(=O)c2c(O)cccc2C1=O", 2.19),
    ("CO[C@H]1O[C@H](COC2=CC(=O)c3cccc(O)c3C2=O)[C@@H](O)[C@H](O)[C@H]1O", 1.92),
    ("CO[C@H]1O[C@H](COC2=CC(=O)c3c(O)ccc(O)c3C2=O)[C@@H](O)[C@H](O)[C@H]1O", 1.96),
    ("COC1=CC(=O)c2cccc(O)c2C1=O", 1.7),
    ("O=C1C=C(O)c2cccc(O)c2C1=O", 3.33),
]

====

Test system: HeLa
Assay: Cytotoxicity against human HeLa cells assessed as inhibition of number of colonies formed in soft agar after 14 days by microscopic analysis
Format: functional
# log10(INCC50) annotations
PROPERTY: log10(INCC50) (log10 of the value in µM)

# CHEMICAL_SMILES, PROPERTY, NUMBER
rows = [
    ("O=C1C=CC(=O)c2c(O)cccc21", "log10(INCC50)", 1.59),
    ("CO[C@H]1O[C@H](COC2=CC(=O)c3cccc(O)c3C2=O)[C@@H](O)[C@H](O)[C@H]1O", "log10(INCC50)", 0.17),
    ("COC1=CC(=O)c2c(O)ccc(O)c2C1=O", "log10(INCC50)", -0.14),
    ("O=C1C=C(O)c2c(O)cccc2C1=O", "log10(INCC50)", 2.04),
    ("O=C1C=C(O)c2cccc(O)c2C1=O", "log10(INCC50)", 1.55),
    ("COC1=CC(=O)c2cccc(O)c2C1=O", "log10(INCC50)", -0.21),
    ("COC1=CC(=O)c2c(O)cccc2C1=O", "log10(INCC50)", -0.23),
    ("CO[C@H]1O[C@H](COC2=CC(=O)c3c(O)ccc(O)c3C2=O)[C@@H](O)[C@H](O)[C@H]1O", "log10(INCC50)", 0.61),
    ("CO[C@H]1O[C@H](COC2=CC(=O)c3c(O)cccc3C2=O)[C@@H](O)[C@H](O)[C@H]1O", "log10(INCC50)", 0.23),
    ("O=C1C=C(O)C(=O)c2c(O)ccc(O)c21", "log10(INCC50)", 0.91),
]

====

System: HeLa
Assay: Cytotoxicity against human HeLa cells assessed as cell viability after 48 hrs by MTS assay
Format: functional, cell-based
PROPERTY: log10 of IC50 (log10 of the value in µM)

# CHEMICAL_SMILES, log10 of IC50
rows = [
    ("CO[C@H]1O[C@H](COC2=CC(=O)c3cccc(O)c3C2=O)[C@@H](O)[C@H](O)[C@H]1O", 0.45),
    ("O=C1C=C(O)c2c(O)cccc2C1=O", 2.27),
    ("COC1=CC(=O)c2c(O)ccc(O)c2C1=O", 0.33),
    ("O=C1C=C(O)C(=O)c2c(O)ccc(O)c21", 1.58),
    ("O=C1C=C(O)c2cccc(O)c2C1=O", 2.07),
    ("CO[C@H]1O[C@H](COC2=CC(=O)c3c(O)ccc(O)c3C2=O)[C@@H](O)[C@H](O)[C@H]1O", 0.90),
    ("CO[C@H]1O[C@H](COC2=CC(=O)c3c(O)cccc3C2=O)[C@@H](O)[C@H](O)[C@H]1O", 0.72),
    ("COC1=CC(=O)c2cccc(O)c2C1=O", 0.02),
    ("COC1=CC(=O)c2c(O)cccc2C1=O", 0.11),
    ("O=C1C=CC(=O)c2c(O)cccc21", 1.82),
]

====

Molecular target: Cellular tumor antigen p53 (Mus musculus)
Assay: Inhibition of p53-dependent transcriptional activity in tumor promotion-sensitive mouse JB6 Cl41 cells after 12 hrs by luciferase-based method
Type: cell-based
Active and inactive are the calls of the source. The calls are words filed in the database; no cut-off is given here.
Outcome codes: active, inactive

# COMPOUND, TARGET_OR_SYSTEM, CLASSIFICATION
data = [
    ("CO[C@H]1O[C@H](COC2=CC(=O)c3c(O)ccc(O)c3C2=O)[C@@H](O)[C@H](O)[C@H]1O", "Cellular tumor antigen p53 (Mus musculus)", "active"),
    ("O=C1C=C(O)c2c(O)cccc2C1=O", "Cellular tumor antigen p53 (Mus musculus)", "active"),
    ("COC1=CC(=O)c2c(O)cccc2C1=O", "Cellular tumor antigen p53 (Mus musculus)", "active"),
    ("COC1=CC(=O)c2cccc(O)c2C1=O", "Cellular tumor antigen p53 (Mus musculus)", "active"),
    ("O=C1C=C(O)C(=O)c2c(O)ccc(O)c21", "Cellular tumor antigen p53 (Mus musculus)", "active"),
    ("O=C1C=CC(=O)c2c(O)cccc21 [JUGLONE]", "Cellular tumor antigen p53 (Mus musculus)", "active"),
    ("CO[C@H]1O[C@H](COC2=CC(=O)c3cccc(O)c3C2=O)[C@@H](O)[C@H](O)[C@H]1O", "Cellular tumor antigen p53 (Mus musculus)", "active"),
    ("COC1=CC(=O)c2c(O)ccc(O)c2C1=O", "Cellular tumor antigen p53 (Mus musculus)", "active"),
    ("CO[C@H]1O[C@H](COC2=CC(=O)c3c(O)cccc3C2=O)[C@@H](O)[C@H](O)[C@H]1O", "Cellular tumor antigen p53 (Mus musculus)", "active"),
    ("CO[C@H]1O[C@H](CO)[C@@H](O)[C@H](O)[C@H]1O", "Cellular tumor antigen p53 (Mus musculus)", "inactive"),
    ("O=C1C=C(O)c2cccc(O)c2C1=O", "Cellular tumor antigen p53 (Mus musculus)", "active"),
]
